This collection of values is drawn from patent US20250163162A1.

Target: T1, IL10Rα/IL2Rγ receptor (human, UniProt Q13651 22-578; P31785 23-369)
T1 sequence (looked up) 1: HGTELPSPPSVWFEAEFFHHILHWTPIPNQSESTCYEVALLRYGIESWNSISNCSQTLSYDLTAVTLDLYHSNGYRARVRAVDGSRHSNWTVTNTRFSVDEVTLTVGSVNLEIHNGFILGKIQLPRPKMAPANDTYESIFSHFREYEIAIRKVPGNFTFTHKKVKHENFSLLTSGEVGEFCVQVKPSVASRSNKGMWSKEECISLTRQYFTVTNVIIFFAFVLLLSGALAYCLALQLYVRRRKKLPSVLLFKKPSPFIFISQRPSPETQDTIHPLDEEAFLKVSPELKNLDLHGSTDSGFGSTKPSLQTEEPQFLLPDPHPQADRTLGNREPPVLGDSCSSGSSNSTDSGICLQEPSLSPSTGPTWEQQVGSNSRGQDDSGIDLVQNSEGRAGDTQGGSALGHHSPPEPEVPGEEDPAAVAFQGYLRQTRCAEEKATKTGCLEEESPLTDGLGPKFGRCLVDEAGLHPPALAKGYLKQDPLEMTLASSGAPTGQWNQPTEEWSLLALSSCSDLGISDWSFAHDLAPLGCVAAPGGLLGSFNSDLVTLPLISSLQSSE
T1 sequence (looked up) 2: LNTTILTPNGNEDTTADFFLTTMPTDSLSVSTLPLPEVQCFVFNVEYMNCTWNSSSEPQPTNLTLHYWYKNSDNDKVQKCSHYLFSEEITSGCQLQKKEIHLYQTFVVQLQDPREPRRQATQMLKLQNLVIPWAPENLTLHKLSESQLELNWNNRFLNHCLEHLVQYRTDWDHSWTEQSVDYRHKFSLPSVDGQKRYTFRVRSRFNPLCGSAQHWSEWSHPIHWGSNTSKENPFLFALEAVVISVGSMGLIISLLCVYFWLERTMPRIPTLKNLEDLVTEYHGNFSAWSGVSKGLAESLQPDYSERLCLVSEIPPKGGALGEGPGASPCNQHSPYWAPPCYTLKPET
Test: cell-based or functional assay
reported metric: pSTAT3 MFI, Monocytes, 100 nM (unstimulated 2116) (MFI)
Give a bare numeral; the unit MFI is implied.

[[record]]
binder = "DR465(DR240-DR231) (bispecific antibody) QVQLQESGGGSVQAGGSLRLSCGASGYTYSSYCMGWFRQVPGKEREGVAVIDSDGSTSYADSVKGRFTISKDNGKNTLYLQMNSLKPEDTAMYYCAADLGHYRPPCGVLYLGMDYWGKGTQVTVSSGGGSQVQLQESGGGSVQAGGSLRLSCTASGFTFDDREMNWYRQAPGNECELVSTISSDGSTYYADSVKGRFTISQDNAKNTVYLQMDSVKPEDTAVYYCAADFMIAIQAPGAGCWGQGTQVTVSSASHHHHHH"
unit_symbol = "MFI"
numeric_value = 2470

[[record]]
binder = "DR441(DR236-DR231) (bispecific antibody) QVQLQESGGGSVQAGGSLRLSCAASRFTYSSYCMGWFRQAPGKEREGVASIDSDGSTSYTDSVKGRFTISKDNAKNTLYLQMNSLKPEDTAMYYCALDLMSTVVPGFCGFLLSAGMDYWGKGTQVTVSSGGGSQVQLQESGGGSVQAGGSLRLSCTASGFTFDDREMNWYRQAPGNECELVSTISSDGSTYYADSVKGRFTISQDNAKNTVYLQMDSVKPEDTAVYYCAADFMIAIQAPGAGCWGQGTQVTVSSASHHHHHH"
unit_symbol = "MFI"
numeric_value = 2290

[[record]]
binder = "DR471(DR241-DR231) (bispecific antibody) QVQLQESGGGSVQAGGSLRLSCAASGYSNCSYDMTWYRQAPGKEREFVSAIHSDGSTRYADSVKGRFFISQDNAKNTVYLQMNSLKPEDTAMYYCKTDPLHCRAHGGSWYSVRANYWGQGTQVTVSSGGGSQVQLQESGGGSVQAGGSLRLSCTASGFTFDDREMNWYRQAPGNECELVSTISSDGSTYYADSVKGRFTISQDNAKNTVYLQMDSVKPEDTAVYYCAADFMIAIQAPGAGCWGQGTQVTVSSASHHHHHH"
unit_symbol = "MFI"
numeric_value = 2210


Proceed to the following item.
Measured pSTAT3 MFI, Monocytes, 100 nM (unstimulated 2116) of DR395(DR229-DR239) (bispecific antibody) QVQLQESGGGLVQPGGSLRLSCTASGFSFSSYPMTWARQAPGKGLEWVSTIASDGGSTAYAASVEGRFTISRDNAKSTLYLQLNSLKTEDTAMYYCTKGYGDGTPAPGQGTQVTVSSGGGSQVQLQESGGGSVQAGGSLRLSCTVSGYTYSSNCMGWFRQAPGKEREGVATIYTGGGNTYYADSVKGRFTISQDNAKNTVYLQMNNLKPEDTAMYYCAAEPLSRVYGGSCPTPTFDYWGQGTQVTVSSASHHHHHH : 2440
